These entries and their values trace back to the METLIN SMRT retention time set (Domingo-Almenara et al. 2019).

Test: gradient 5% acetonitrile 3 min, to 50% in 2 min, to 85% in 15 min, held 3 min, 100 µL/min
Conditions: column: Zorbax Extend-C18 2.1 x 50 mm; eluents: water / acetonitrile, 0.1% formic acid
Classify by measured RP-LC retention time: true (1) if it is equal to or exceeds 800 s, false (0) if it is smaller.

Consider the following illustrative entries.
>>> qualitative_label("Cc1ccc(NC(=O)N2CCC(N3CCN(Cc4ccc(F)cc4)C(=O)C3=O)CC2)cc1F")
"false (0)"
>>> qualitative_label("CS(=O)(=O)Nc1ccc(C2(C(=O)NCc3cc(F)cc(F)c3)CCCCC2)cc1")
"true (1)"
>>> qualitative_label("COc1ccccc1NC(=O)c1cnc(-c2ccccc2)nc1-c1ccncc1")
"true (1)"
>>> qualitative_label("Cc1ccc(C)c(C(O)Cn2ccn3nc(-c4cccc(Br)c4)cc3c2=O)c1 (stereo not given)")
"true (1)"
>>> qualitative_label("CCOc1ccccc1CNC(=O)c1ccc2[nH]c3c(c2c1)CN(C(C)=O)CC3")
"false (0)"

Answer whether RP-LC retention time of O=C(NCC(c1ccccc1)c1c[nH]c2ccccc12)NC1CCCCC1 (stereo not given) is greater than or equal to 800 s.
true (1)

Quick check: does "CCc1nc2cc(N3CCC(C(=O)Nc4ccc(OC)cc4)CC3)cnc2nc1CC" have RP-LC retention time greater than or equal to 800 s?
true (1)

Quick check: does "O=C(Nc1ccc(NC(=O)c2ccncc2)cc1)c1ccncc1" have RP-LC retention time greater than or equal to 800 s?
false (0)

###

Test: gradient 5% acetonitrile 3 min, to 50% in 2 min, to 85% in 15 min, held 3 min, 100 µL/min
Conditions: column: Zorbax Extend-C18 2.1 x 50 mm; eluents: water / acetonitrile, 0.1% formic acid
Please note: Criterion met applies when RP-LC retention time is 700 s or greater, and Criterion not met applies otherwise.

Please review the entries below; each comes with its answer.
>>> qualitative_label("CC(C)Cc1ccc(S(=O)(=O)N2CCC3(CC2)c2nccn2CCN3C)cc1")
"Criterion met"
>>> qualitative_label("O=C(NC1(c2nc(-c3ccccc3)no2)CCCCC1)c1ccc(Br)cc1")
"Criterion met"

Could you tell me if the measured RP-LC retention time of "CCOC(=O)c1cccc(NC(=O)N2CCN(C)c3ncccc32)c1" reaches 700 s or more?
Criterion not met

###

Experiment: gradient 5% acetonitrile 3 min, to 50% in 2 min, to 85% in 15 min, held 3 min, 100 µL/min
Settings: column: Zorbax Extend-C18 2.1 x 50 mm; eluents: water / acetonitrile, 0.1% formic acid
Record form. Attribute: RP-LC retention time. Fill in for each entry.
Numbers only, in s.

Record RP-LC retention time per entry; entries follow.
1. O=C(C1CC1)N1CCN(c2ccc(=O)n(-c3cccc(Cl)c3)n2)CC1
2. CCN1C(=O)Cc2cc(C(=O)NC3CCCCC3)ccc21
3. Cc1ccc(S(=O)(=O)N2C(=O)CCC2C(=O)NC2CCCCC2)cc1C (stereo not given)

1. 738
2. 736
3. 916

Give one value of RP-LC retention time per listed molecule.
1. CN1C(=O)c2cc(C(=O)NCc3ccccc3)nn2CC1(C)C(=O)NC1CCCCCC1 (stereo not given)
2. COc1ccc2ncc(S(=O)(=O)c3ccccc3)c(Nc3ccc4c(c3)OCCO4)c2c1

1. 791
2. 855

###

Experiment: gradient 5% acetonitrile 3 min, to 50% in 2 min, to 85% in 15 min, held 3 min, 100 µL/min
Settings: column: Zorbax Extend-C18 2.1 x 50 mm; eluents: water / acetonitrile, 0.1% formic acid
Exercise: state measured RP-LC retention time for each of the compounds provided.

Here is how some compounds turned out for RP-LC retention time.
>>> endpoint_result("Cc1cc(C)cc(NC(=O)N2CCc3cn(C)c4cccc(c34)C2)c1")
"1050 s"
>>> endpoint_result("O=S(=O)(c1cccn2c(SCc3ccc(F)cc3)nnc12)N1CCCC1")
"829 s"
>>> endpoint_result("CCN(CC)C(=O)c1ccc2c(c1)N(CC(=O)N1CCN(c3ncccn3)CC1)C(=O)CO2")
"666 s"
>>> endpoint_result("C=C(C)Cn1c(C2CC(=O)N(c3ccccc3Br)C2)nc2ccccc21 (stereo not given)")
"708 s"
>>> endpoint_result("CCN1C(=O)C(C)(C(=O)Nc2cccc(Cl)c2)Oc2cccnc21 (stereo not given)")
"982 s"
>>> endpoint_result("Cc1ccccc1NS(=O)(=O)c1ccc(-c2c(C)noc2C)cc1")
"924 s"
>>> endpoint_result("CC1CCCC(NC(=O)C2CCCN(C(=O)c3cc4sccc4n3C)C2)C1C (stereo not given)")
"991 s"
>>> endpoint_result("COC(=O)c1ccccc1NC(=O)N1CCOc2ccc(C)cc21")
"1140 s"
>>> endpoint_result("Cc1ccc(NC(=O)Cn2c(=O)cc(-c3nc(C)no3)c3ccccc32)c(C)c1")
"972 s"

For the compound shown here, "CCC(=O)N1CCc2cc(-c3ccc(C(=O)NCCc4c(C)noc4C)cc3)ccc21" , give the reported RP-LC retention time.
750 s

###

Assay: gradient 5% acetonitrile 3 min, to 50% in 2 min, to 85% in 15 min, held 3 min, 100 µL/min
Conditions: column: Zorbax Extend-C18 2.1 x 50 mm; eluents: water / acetonitrile, 0.1% formic acid
Kindly supply the reported RP-LC retention time values for the records listed here.
One number for each entry, in s.

These solved cases illustrate the format of a correct answer.
>>> endpoint_result("O=C(NCc1ccc(F)c(Cl)c1)C1CCN(C(=O)c2ncn3c2COC(c2ccccc2)C3)CC1 (centres undefined)")
842
>>> endpoint_result("Cn1nc2c(c1NC(=O)c1ccc(Cl)s1)CCC2")
724
>>> endpoint_result("COc1cc2c(cc1OC)C(C(=O)Nc1ccc3c(c1)OCCO3)C(c1cccs1)N(C)C2=O (centres undefined)")
783

Batch request: RP-LC retention time for each of the following compounds.
1. CC1(C)CC(=O)c2cn(-c3ccc(F)cc3)c(=O)c(C(=O)N3CCCC3)c2C1
2. Cc1cccc(N2CCN(C(=O)C3=CCN(Cc4cccc(F)c4)CC3)CC2)c1
3. Cc1ccc(C(=O)NCCc2c[nH]c3ccc(Cl)cc23)cc1-n1nnc2cccnc21
4. CCN1C(=O)NC(c2ccc(C)cc2C)C2=C1CN(CCC(=O)N1CCOCC1)C2=O (centres undefined)

1. 729
2. 690
3. 903
4. 614

For every record below, what is its RP-LC retention time?
1. CCC(=O)N1CCCN(C2=NS(=O)(=O)C(c3ccc(F)cc3)=C2C)CC1
2. Cc1cc(C(=O)Nc2ccc(Cl)cn2)c2ccccc2n1

[698, 694]

###

Assay: gradient 5% acetonitrile 3 min, to 50% in 2 min, to 85% in 15 min, held 3 min, 100 µL/min
Conditions: column: Zorbax Extend-C18 2.1 x 50 mm; eluents: water / acetonitrile, 0.1% formic acid
Could you please report measured RP-LC retention time for the items listed next?
One number for each entry, in s.

These solved cases illustrate the format of a correct answer.
>>> endpoint_result("COC(=O)CCc1c(C)nc2c(c(-c3cccs3)nn2C2CCS(=O)(=O)C2)c1C (centres undefined)")
850
>>> endpoint_result("CCn1c(=O)c(N2CCC(NC(=O)Nc3cc(C)cc(C)c3)CC2)nc2cccnc21")
1010
>>> endpoint_result("COc1ccc(OC)c(C(C)NC(=O)C2CCCN(c3nccnc3Oc3ccccc3)C2)c1 (centres undefined)")
998
>>> endpoint_result("Cc1cc(Cl)ccc1N1C(=O)CN(S(C)(=O)=O)CC1(C)C(=O)NCc1ccccc1 (centres undefined)")
863
>>> endpoint_result("Cc1ccc2c(c1)Oc1ccccc1N=C2")
993
>>> endpoint_result("CCCCN(C)C(=O)Cn1c(C(C)NC(=O)c2ccco2)nc2ccccc21 (centres undefined)")
655
>>> endpoint_result("CCN(CC)c1ccc(C2C(C#N)=C(N)Oc3n[nH]c(C)c32)cc1 (centres undefined)")
546
>>> endpoint_result("COc1ccc(-c2noc(C3CCCN3C(=O)Nc3ccccc3Cl)n2)cc1 (centres undefined)")
920
>>> endpoint_result("COc1cccc2cc(C(=O)NC3C=CS(=O)(=O)C3)oc12 (centres undefined)")
652
>>> endpoint_result("CCS(=O)(=O)c1ccc2c(c1)N(Cc1nc(-c3cccc(C)c3)no1)C(=O)CO2")
926

Your task in this section: give RP-LC retention time for each listed record.
1. CC(C)NC(=O)c1n[nH]c2c1CCCC2
2. CCc1cc(=O)n(CC(=O)Nc2ccc(C)cc2C)c(N2CCOCC2)n1
3. Cc1cccc(NS(=O)(=O)c2cc3n(c2)CCCNC3=O)c1C
4. Cc1cc(-c2c(C)sc(C)c2S(=O)(=O)NCc2ccccc2Cl)n[nH]1
5. O=C1NCCCCCCN(C(=O)Nc2ccccc2)[C@H]2CCCC[C@@H]12
6. O=C(CCC[C@@H]1[C@H]2CCCN3CCC[C@@H](CN1C(=O)c1ccccc1)[C@@H]23)NC1CCS(=O)(=O)C1 (some centres undefined)

[662, 767, 658, 1060, 805, 574]
